Test system: Enterococcus faecalis
assay remarks: Antibacterial activity against Enterococcus faecalis ATCC 29212 by CLSI M07-A8 method
Format: functional
Rule: MIC below 0.2 µg/mL gives label 1, anything at or above gives label 0.

# structure as smiles, answer label
records = [
    ("CNC(=O)C[C@@H]1NC(=O)c2csc(n2)-c2ccc(-c3nc(NC(=O)OCCOCCOCCOC)cs3)nc2-c2csc(n2)-c2csc(n2)[C@H]([C@@H](O)c2ccccc2)NC(=O)CNC(=O)c2nc(sc2COC)[C@H](C(C)C)NC(=O)c2nc1sc2C", "label 0"),
    ("CNC(=O)C[C@@H]1NC(=O)c2csc(n2)-c2ccc(-c3nc(NC(=O)OC(C)(C)C)cs3)nc2-c2csc(n2)-c2csc(n2)[C@H]([C@@H](O)c2ccccc2)NC(=O)CNC(=O)c2nc(sc2COC)[C@H](C(C)C)NC(=O)c2nc1sc2C", "label 0"),
    ("CNC(=O)C[C@@H]1NC(=O)c2csc(n2)-c2ccc(-c3nc(NC(=O)O[C@H]4CC[C@H](N)CC4)cs3)nc2-c2csc(n2)-c2csc(n2)[C@H]([C@@H](O)c2ccccc2)NC(=O)CNC(=O)c2nc(sc2COC)[C@H](C(C)C)NC(=O)c2nc1sc2C", "label 0"),
    ("CNC(=O)C[C@@H]1NC(=O)c2csc(n2)-c2ccc(-c3nc(C4=N[C@H](C(=O)N5CCC[C@H]5C(N)=O)CO4)cs3)nc2-c2csc(n2)-c2csc(n2)[C@H]([C@@H](O)c2ccccc2)NC(=O)CNC(=O)c2nc(sc2COC)[C@H](C(C)C)NC(=O)c2nc1sc2C", "label 0"),
    ("CNC(=O)C[C@@H]1NC(=O)c2csc(n2)-c2ccc(-c3nc(NC(=O)[C@H]4CC[C@H](C(=O)O)CC4)cs3)nc2-c2csc(n2)-c2csc(n2)[C@H]([C@@H](O)c2ccccc2)NC(=O)CNC(=O)c2nc(sc2COC)[C@H](C(C)C)NC(=O)c2nc1sc2C", "label 1"),
    ("CNC(=O)C[C@@H]1NC(=O)c2csc(n2)-c2ccc(-c3nc(NC(=O)NCCC(=O)O)cs3)nc2-c2csc(n2)-c2csc(n2)[C@H]([C@@H](O)c2ccccc2)NC(=O)CNC(=O)c2nc(sc2COC)[C@H](C(C)C)NC(=O)c2nc1sc2C", "label 0"),
    ("CNC(=O)C[C@@H]1NC(=O)c2csc(n2)-c2ccc(-c3nc(NC(=O)OCCN)cs3)nc2-c2csc(n2)-c2csc(n2)[C@H]([C@@H](O)c2ccccc2)NC(=O)CNC(=O)c2nc(sc2COC)[C@H](C(C)C)NC(=O)c2nc1sc2C", "label 0"),
    ("CNC(=O)C[C@@H]1NC(=O)c2csc(n2)-c2ccc(-c3nc(NC(=O)CCCCC(=O)O)cs3)nc2-c2csc(n2)-c2csc(n2)[C@H]([C@@H](O)c2ccccc2)NC(=O)CNC(=O)c2nc(sc2COC)[C@H](C(C)C)NC(=O)c2nc1sc2C", "label 1"),
    ("CNC(=O)C[C@@H]1NC(=O)c2csc(n2)-c2ccc(-c3nc(NC(=O)O[C@H]4CC[C@H](C(=O)O)CC4)cs3)nc2-c2csc(n2)-c2csc(n2)[C@H]([C@@H](O)c2ccccc2)NC(=O)CNC(=O)c2nc(sc2COC)[C@H](C(C)C)NC(=O)c2nc1sc2C", "label 1"),
    ("CNC(=O)C[C@@H]1NC(=O)c2csc(n2)-c2ccc(-c3nc(NC(=O)O[C@H]4CC[C@@H](C(=O)O)CC4)cs3)nc2-c2csc(n2)-c2csc(n2)[C@H]([C@@H](O)c2ccccc2)NC(=O)CNC(=O)c2nc(sc2COC)[C@H](C(C)C)NC(=O)c2nc1sc2C", "label 1"),
    ("CNC(=O)C[C@@H]1NC(=O)c2csc(n2)-c2ccc(-c3nc(NC(=O)CCCN(C)C)cs3)nc2-c2csc(n2)-c2csc(n2)[C@H]([C@@H](O)c2ccccc2)NC(=O)CNC(=O)c2nc(sc2COC)[C@H](C(C)C)NC(=O)c2nc1sc2C", "label 0"),
    ("CNC(=O)C[C@@H]1NC(=O)c2csc(n2)-c2ccc(-c3nc(NC(=O)[C@H]4CC[C@@H](C(=O)O)C4)cs3)nc2-c2csc(n2)-c2csc(n2)[C@H]([C@@H](O)c2ccccc2)NC(=O)CNC(=O)c2nc(sc2COC)[C@H](C(C)C)NC(=O)c2nc1sc2C", "label 0"),
    ("CNC(=O)C[C@@H]1NC(=O)c2csc(n2)-c2ccc(-c3nc(NC(=O)/C=C\\C(=O)O)cs3)nc2-c2csc(n2)-c2csc(n2)[C@H]([C@@H](O)c2ccccc2)NC(=O)CNC(=O)c2nc(sc2COC)[C@H](C(C)C)NC(=O)c2nc1sc2C", "label 0"),
    ("CNC(=O)C[C@@H]1NC(=O)c2csc(n2)-c2ccc(-c3nc(NC(=O)c4cnc(C(=O)O)cn4)cs3)nc2-c2csc(n2)-c2csc(n2)[C@H]([C@@H](O)c2ccccc2)NC(=O)CNC(=O)c2nc(sc2COC)[C@H](C(C)C)NC(=O)c2nc1sc2C", "label 0"),
    ("CNC(=O)C[C@@H]1NC(=O)c2csc(n2)-c2ccc(-c3nc(NC(=O)NCCCC(=O)O)cs3)nc2-c2csc(n2)-c2csc(n2)[C@H]([C@@H](O)c2ccccc2)NC(=O)CNC(=O)c2nc(sc2COC)[C@H](C(C)C)NC(=O)c2nc1sc2C", "label 0"),
    ("CNC(=O)C[C@@H]1NC(=O)c2csc(n2)-c2ccc(-c3nc(NC(=O)CC[C@@H](C)C(=O)O)cs3)nc2-c2csc(n2)-c2csc(n2)[C@H]([C@@H](O)c2ccccc2)NC(=O)CNC(=O)c2nc(sc2COC)[C@H](C(C)C)NC(=O)c2nc1sc2C", "label 1"),
]

----------
Test system: Enterococcus faecalis
assay remarks: Antibacterial activity against Enterococcus faecalis ATCC 29212 by CLSI M07-A8 method
Assay type: functional

# structure as smiles, MIC / µg/mL
measured = [
    ("CNC(=O)C[C@@H]1NC(=O)c2csc(n2)-c2ccc(-c3nc(NC(=O)COCC(=O)O)cs3)nc2-c2csc(n2)-c2csc(n2)[C@H]([C@@H](O)c2ccccc2)NC(=O)CNC(=O)c2nc(sc2COC)[C@H](C(C)C)NC(=O)c2nc1sc2C", 0.5),
    ("CNC(=O)C[C@@H]1NC(=O)c2csc(n2)-c2ccc(-c3nc(NC(=O)CCCC(=O)O)cs3)nc2-c2csc(n2)-c2csc(n2)[C@H]([C@@H](O)c2ccccc2)NC(=O)CNC(=O)c2nc(sc2COC)[C@H](C(C)C)NC(=O)c2nc1sc2C", 0.25),
]

----------
assay remarks: AUC in Sprague-Dawley rat at 25 mg/kg, iv bolus
Assay type: ADME, organism-based
Set-up: dose 25 mg/kg, route intravenous
assay context: plasma

# structure as smiles, unit tag, AUC
data = [
    ("CNC(=O)C[C@@H]1NC(=O)c2csc(n2)-c2ccc(-c3nc(NC(=O)[C@H]4CC[C@H](C(=O)O)CC4)cs3)nc2-c2csc(n2)-c2csc(n2)[C@H]([C@@H](O)c2ccccc2)NC(=O)CNC(=O)c2nc(sc2COC)[C@H](C(C)C)NC(=O)c2nc1sc2C", "µM·h", 343),
]

----------
System: Enterococcus faecium
assay remarks: Antibacterial activity against Enterococcus faecium 7130724 by CLSI M07-A8 method
Format: functional
parameter: MIC (µg/mL)

# structure as smiles, parameter, reported value
data = [
    ("CNC(=O)C[C@@H]1NC(=O)c2csc(n2)-c2ccc(-c3nc(NC(=O)C45CCC(C(=O)O)(CC4)CC5)cs3)nc2-c2csc(n2)-c2csc(n2)[C@H]([C@@H](O)c2ccccc2)NC(=O)CNC(=O)c2nc(sc2COC)[C@H](C(C)C)NC(=O)c2nc1sc2C", "MIC", 0.25),
    ("CNC(=O)C[C@@H]1NC(=O)c2csc(n2)-c2ccc(-c3nc(NC(=O)CCCC(=O)O)cs3)nc2-c2csc(n2)-c2csc(n2)[C@H]([C@@H](O)c2ccccc2)NC(=O)CNC(=O)c2nc(sc2COC)[C@H](C(C)C)NC(=O)c2nc1sc2C", "MIC", 0.5),
    ("CNC(=O)C[C@@H]1NC(=O)c2csc(n2)-c2ccc(-c3nc(NC(=O)c4cnc(C(=O)O)cn4)cs3)nc2-c2csc(n2)-c2csc(n2)[C@H]([C@@H](O)c2ccccc2)NC(=O)CNC(=O)c2nc(sc2COC)[C@H](C(C)C)NC(=O)c2nc1sc2C", "MIC", 0.25),
    ("CNC(=O)C[C@@H]1NC(=O)c2csc(n2)-c2ccc(-c3nc(NC(=O)OCCOCCOCCOC)cs3)nc2-c2csc(n2)-c2csc(n2)[C@H]([C@@H](O)c2ccccc2)NC(=O)CNC(=O)c2nc(sc2COC)[C@H](C(C)C)NC(=O)c2nc1sc2C", "MIC", 0.5),
]

Origin of the recorded values: ChEMBL document CHEMBL1921735
